recorded.metric: melting point

Some solved cases for reference:
{"columns": ["molecule", "endpoint.result"],
 "data": [
  ["CCOCC(=O)c1cc(C(C)(C)C)c(O)c(C(C)(C)C)c1 [Compound 113]", "73 to 75 °C"],
  ["CCC(C)(C)c1cc(C(=O)CI)cc(C(C)(C)CC)c1O [Compound 204]", "76 to 77 °C"]
]}

Turning now to a further record.
What measured melting point goes with CC(I)C(=O)c1cc(C(C)(C)C)c(O)c(C(C)(C)C)c1 (stereo not drawn) [Compound 205] ?
141 °C
